Could you please report measured Log Ki for the items listed next?
- Target: Adrenergic receptor alpha-1 (Rattus norvegicus, UniProt P15823+P23944+P43140)
- Sequence (P15823 whole entry): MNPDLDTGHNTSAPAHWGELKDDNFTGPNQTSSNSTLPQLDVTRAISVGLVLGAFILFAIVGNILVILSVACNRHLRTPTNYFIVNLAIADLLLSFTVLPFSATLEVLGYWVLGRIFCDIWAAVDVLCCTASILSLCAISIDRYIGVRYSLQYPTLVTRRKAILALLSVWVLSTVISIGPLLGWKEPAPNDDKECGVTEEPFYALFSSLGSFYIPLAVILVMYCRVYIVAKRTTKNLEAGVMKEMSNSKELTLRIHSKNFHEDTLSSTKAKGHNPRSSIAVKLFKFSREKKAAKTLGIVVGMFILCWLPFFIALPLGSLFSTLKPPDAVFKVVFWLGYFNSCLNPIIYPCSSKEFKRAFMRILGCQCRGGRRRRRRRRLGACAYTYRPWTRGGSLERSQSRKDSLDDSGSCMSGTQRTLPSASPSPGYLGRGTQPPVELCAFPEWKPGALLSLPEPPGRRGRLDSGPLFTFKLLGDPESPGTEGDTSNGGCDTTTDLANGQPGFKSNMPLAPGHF
- Sequence (P23944 whole entry): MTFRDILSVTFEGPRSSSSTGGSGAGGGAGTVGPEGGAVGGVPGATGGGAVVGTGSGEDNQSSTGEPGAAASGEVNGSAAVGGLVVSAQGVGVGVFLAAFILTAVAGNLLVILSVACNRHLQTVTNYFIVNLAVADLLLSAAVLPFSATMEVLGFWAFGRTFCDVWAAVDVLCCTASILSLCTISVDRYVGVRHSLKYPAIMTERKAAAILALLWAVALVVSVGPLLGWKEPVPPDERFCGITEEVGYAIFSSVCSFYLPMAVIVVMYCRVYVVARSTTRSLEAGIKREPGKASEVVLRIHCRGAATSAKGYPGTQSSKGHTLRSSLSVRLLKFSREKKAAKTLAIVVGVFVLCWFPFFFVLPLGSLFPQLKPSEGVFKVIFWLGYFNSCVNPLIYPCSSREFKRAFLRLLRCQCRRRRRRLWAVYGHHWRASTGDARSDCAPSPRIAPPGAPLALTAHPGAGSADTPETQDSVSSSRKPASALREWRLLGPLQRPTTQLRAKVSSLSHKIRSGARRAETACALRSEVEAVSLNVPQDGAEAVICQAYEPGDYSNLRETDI
- Sequence (P43140 whole entry): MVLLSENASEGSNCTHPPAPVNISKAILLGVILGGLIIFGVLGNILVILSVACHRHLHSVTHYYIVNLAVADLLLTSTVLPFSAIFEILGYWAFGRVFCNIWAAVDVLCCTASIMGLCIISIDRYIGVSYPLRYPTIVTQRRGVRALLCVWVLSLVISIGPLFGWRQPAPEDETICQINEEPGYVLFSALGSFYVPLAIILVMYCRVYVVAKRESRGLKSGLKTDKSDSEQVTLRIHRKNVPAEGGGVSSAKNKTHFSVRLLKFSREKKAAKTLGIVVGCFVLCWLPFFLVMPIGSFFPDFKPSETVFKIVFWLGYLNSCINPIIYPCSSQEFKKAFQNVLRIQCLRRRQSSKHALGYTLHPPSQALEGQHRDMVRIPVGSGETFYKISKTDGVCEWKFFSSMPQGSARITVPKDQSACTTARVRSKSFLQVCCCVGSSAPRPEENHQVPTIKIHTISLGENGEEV
- Test summary: Binding affinity at Alpha-1 adrenergic receptor by inhibition of [3H]-prazosin binding to rat cortex
I only need the number, thanks.

Consider COc1ccc2c(c1)C[C@@H](N1CCN(c3cccc4c3OCCO4)CC1)[C@@H]2O (racemic) . Its measured Log Ki is -6.55

compound O[C@@H]1c2ccc(F)cc2C[C@H]1N1CCN(c2cccc3c2OCCO3)CC1 (racemic) , Log Ki observed: -6.15

Lookup result for O[C@@H]1c2ccc(F)cc2C[C@H]1N1CCC(O)(c2cccc3c2OCCO3)CC1 (relative stereo) ; measured Log Ki: -6.31

What the record says about O[C@@H]1c2cc(F)c(F)cc2C[C@H]1N1CCN(c2cccc3c2OCCO3)CC1 (relative stereo) : Log Ki is -6.15

Entry source: ChEMBL document CHEMBL1135394
